Each entry below lists one item and its recorded IC50 Ratio (IC50 compound/IC50 PYY(3-36)) value.
Target: human Y2 receptor (human) (UniProt P49146)
Sequence (P49146 whole entry): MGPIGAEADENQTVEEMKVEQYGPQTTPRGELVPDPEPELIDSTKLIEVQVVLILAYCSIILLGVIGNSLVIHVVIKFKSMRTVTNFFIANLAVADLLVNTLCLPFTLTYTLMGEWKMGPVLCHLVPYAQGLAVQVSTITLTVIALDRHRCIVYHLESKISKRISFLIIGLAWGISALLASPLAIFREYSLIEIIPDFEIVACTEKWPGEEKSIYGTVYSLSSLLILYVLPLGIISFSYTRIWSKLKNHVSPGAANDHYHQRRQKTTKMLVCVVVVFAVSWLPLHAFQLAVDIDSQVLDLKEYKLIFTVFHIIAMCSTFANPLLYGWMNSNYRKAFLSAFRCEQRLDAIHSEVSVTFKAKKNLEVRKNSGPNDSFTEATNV
Test: RBA: displacement of [125I]-PYY from hY2R/CHO membranes
Non-standard residues stand in square brackets, D forms with d. *: point of attachment. (carboxymethyl)carbamoyl = O=C(O)CNC(=O)*; Imidazole4carbonyl = O=C(c1cnc[nH]1)*; 4Pal = N[C@@H](Cc1ccncc1)C(=O)O; Cha = N[C@@H](CC1CCCCC1)C(=O)O; Isonicotinoyl = O=C(c1ccncc1)*; Aipe = 3-aminobutanoic acid; Iva = CC[C@](C)(N)C(=O)O; Nle = CCCC[C@H](N)C(=O)O; Aib = CC(C)(N)C(=O)O
Measured Metric: IC50 Ratio (IC50 compound/IC50 PYY(3-36))

[[record]]
binder = "{(carboxymethyl)carbamoyl}-S[dP][Iva][4Pal][Cha][Aib]NK[Aib]TRQR[Cha]-NH2 (SMILES CC[C@](C)(NC(=O)[C@H]1CCCN1C(=O)[C@H](CO)NC(=O)NCC(=O)O)C(=O)N[C@@H](Cc1ccncc1)C(=O)N[C@@H](CC1CCCCC1)C(=O)NC(C)(C)C(=O)N[C@@H](CC(N)=O)C(=O)N[C@@H](CCCCN)C(=O)NC(C)(C)C(=O)N[C@H](C(=O)N[C@@H](CCCNC(=N)N)C(=O)N[C@@H](CCC(N)=O)C(=O)N[C@@H](CCCNC(=N)N)C(=O)N[C@@H](CC1CCCCC1)C(N)=O)[C@@H](C)O) [(Carboxymethyl)carbamoyl-[D-Pro24, Iva25, Pya(4)26, Cha27,36, Aib28,31, Lys30]-PYY(23-36)]"
result = 3

[[record]]
binder = "Ac-E[dP][Iva][4Pal][Cha][Aib]NK[Aib]TRQR[Cha]-NH2 (SMILES CC[C@](C)(NC(=O)[C@H]1CCCN1C(=O)[C@H](CCC(=O)O)NC(C)=O)C(=O)N[C@@H](Cc1ccncc1)C(=O)N[C@@H](CC1CCCCC1)C(=O)NC(C)(C)C(=O)N[C@@H](CC(N)=O)C(=O)N[C@@H](CCCCN)C(=O)NC(C)(C)C(=O)N[C@H](C(=O)N[C@@H](CCCNC(=N)N)C(=O)N[C@@H](CCC(N)=O)C(=O)N[C@@H](CCCNC(=N)N)C(=O)N[C@@H](CC1CCCCC1)C(N)=O)[C@@H](C)O) [Ac-[Glu23, D-Pro24, Iva25, Pya(4)26, Cha27,36, Aib28,31, Lys30]-PYY(23-36)]"
result = 6.1

[[record]]
binder = "Ac-S[Aipe]R[4Pal][Cha][Aib]NK[Aib]TRQR[Cha]-NH2 [Ac-[Aipe24, Pya(4)26, Cha27,36, Aib28,31, Lys30]-PYY(23-36)]"
result = 1.3

[[record]]
binder = "Imidazole4carbonyl-S[dP][Nle][4Pal][Cha][Aib]NK[Aib]TRQR[Cha]-NH2 (SMILES CCCC[C@H](NC(=O)[C@H]1CCCN1C(=O)[C@H](CO)NC(=O)c1cnc[nH]1)C(=O)N[C@@H](Cc1ccncc1)C(=O)N[C@@H](CC1CCCCC1)C(=O)NC(C)(C)C(=O)N[C@@H](CC(N)=O)C(=O)N[C@@H](CCCCN)C(=O)NC(C)(C)C(=O)N[C@H](C(=O)N[C@@H](CCCNC(=N)N)C(=O)N[C@@H](CCC(N)=O)C(=O)N[C@@H](CCCNC(=N)N)C(=O)N[C@@H](CC1CCCCC1)C(N)=O)[C@@H](C)O) [4-Imidazolecarbonyl-[D-Pro24, Nle25, Pya(4)26, Cha27,36, Aib28,31, Lys30]-PYY(23-36)]"
result = 1.7

[[record]]
binder = "Ac-KS[dP]R[4Pal][Cha][Aib]NK[Aib]TRQR[Cha]-NH2 (SMILES CC(=O)N[C@@H](CCCCN)C(=O)N[C@@H](CO)C(=O)N1CCC[C@@H]1C(=O)N[C@@H](CCCNC(=N)N)C(=O)N[C@@H](Cc1ccncc1)C(=O)N[C@@H](CC1CCCCC1)C(=O)NC(C)(C)C(=O)N[C@@H](CC(N)=O)C(=O)N[C@@H](CCCCN)C(=O)NC(C)(C)C(=O)N[C@H](C(=O)N[C@@H](CCCNC(=N)N)C(=O)N[C@@H](CCC(N)=O)C(=O)N[C@@H](CCCNC(=N)N)C(=O)N[C@@H](CC1CCCCC1)C(N)=O)[C@@H](C)O) [Ac-[Lys22,30, D-Pro24, Pya(4)26, Cha27,36, Aib28,31]-PYY(22-36)]"
result = 1.1

[[record]]
binder = "Isonicotinoyl-E[dP]R[4Pal][Cha][Aib]NK[Aib]TRQR[Cha]-NH2 (SMILES C[C@@H](O)[C@H](NC(=O)C(C)(C)NC(=O)[C@H](CCCCN)NC(=O)[C@H](CC(N)=O)NC(=O)C(C)(C)NC(=O)[C@H](CC1CCCCC1)NC(=O)[C@H](Cc1ccncc1)NC(=O)[C@H](CCCNC(=N)N)NC(=O)[C@H]1CCCN1C(=O)[C@H](CCC(=O)O)NC(=O)c1ccncc1)C(=O)N[C@@H](CCCNC(=N)N)C(=O)N[C@@H](CCC(N)=O)C(=O)N[C@@H](CCCNC(=N)N)C(=O)N[C@@H](CC1CCCCC1)C(N)=O) [4-Pyridinecarbonyl-[Glu23, D-Pro24, Pya(4)26, Cha27,36, Aib28,31, Lys30]-PYY(23-36)]"
result = 1.9

[[record]]
binder = "Ac-S[dP]R[4Pal][Cha][Aib]NR[Aib]TRQR[Cha]-NH2 (SMILES CC(=O)N[C@@H](CO)C(=O)N1CCC[C@@H]1C(=O)N[C@@H](CCCNC(=N)N)C(=O)N[C@@H](Cc1ccncc1)C(=O)N[C@@H](CC1CCCCC1)C(=O)NC(C)(C)C(=O)N[C@@H](CC(N)=O)C(=O)N[C@@H](CCCNC(=N)N)C(=O)NC(C)(C)C(=O)N[C@H](C(=O)N[C@@H](CCCNC(=N)N)C(=O)N[C@@H](CCC(N)=O)C(=O)N[C@@H](CCCNC(=N)N)C(=O)N[C@@H](CC1CCCCC1)C(N)=O)[C@@H](C)O) [Ac-[D-Pro24, Pya(4)26, Cha27,36, Aib28,31, Arg30]-PYY(23-36)]"
result = 1.1

[[record]]
binder = "Ac-R[dP][Iva][4Pal][Cha][Aib]NK[Aib]TRQR[Cha]-NH2 (SMILES CC[C@](C)(NC(=O)[C@H]1CCCN1C(=O)[C@H](CCCNC(=N)N)NC(C)=O)C(=O)N[C@@H](Cc1ccncc1)C(=O)N[C@@H](CC1CCCCC1)C(=O)NC(C)(C)C(=O)N[C@@H](CC(N)=O)C(=O)N[C@@H](CCCCN)C(=O)NC(C)(C)C(=O)N[C@H](C(=O)N[C@@H](CCCNC(=N)N)C(=O)N[C@@H](CCC(N)=O)C(=O)N[C@@H](CCCNC(=N)N)C(=O)N[C@@H](CC1CCCCC1)C(N)=O)[C@@H](C)O) [Ac-[Arg23, D-Pro24, Iva25, Pya(4)26, Cha27,36, Aib28,31, Lys30]-PYY(23-36)]"
result = 0.88

